- Procedure summary: inhibitors of E-selectin induction by TNFa, primary screen, imaging, HUVEC, immunofluorescence, MLSMR starter and 10KST1 sets (AID 487);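 further: signal is fraction of cell area covered by stained E-selectin grains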
- Experimental context: HUVEC TNFalpha-induced E-selectin immunofluorescence imaging, at 2 µM; stronger effect = higher value
Recorded measurements of inhibition, one per entry
Numbers only; they are read as %.

See these solved cases before continuing.
| Compound | Parameter | Observed |
| --- | --- | --- |
| CC(=O)Nc1cc(N2C(=O)CCC2=O)ccc1Cl | inhibition | 10.7 |
| O=C1CC(Cc2ccccc2)C(=O)N1CCCn1ccnc1 (stereo not drawn) | inhibition | 36.4 |
| CCN(CC)Cc1csc(C(N)=O)c1 | inhibition | -26 |

Q. Fill in the blank: the reported inhibition of O=C(CN1C(=O)CCS(=O)(=O)c2ccccc21)Nc1cccc(F)c1 is ____.
A. -27.1

Q. Record: COc1ccc(Cn2nnnc2CN2CCOCC2)cc1
A. 1

Q. Try c1ccc2c(c1)c1c3n2CCNC3CCC1 (stereo not drawn) next.
A. -119

Q. Another compound to check: CCOC(=O)C1=C(C)NC(=O)C1CC(=O)Nc1ccccc1 (stereo not drawn)
A. -73.4

Q. Consider next the compound Cc1noc(C)c1CSc1nnc2scc(-c3ccc(Cl)cc3)n12 in the same way.
A. -88.2

Q. Record: O=C(c1cccs1)N1CCN=C1SCc1ccccc1
A. -33.5

* * *

- Experimental system: Muscarinic acetylcholine receptor M4 (Homo sapiens) (UniProt P08173)
- Sequence (P08173 whole entry, looked up): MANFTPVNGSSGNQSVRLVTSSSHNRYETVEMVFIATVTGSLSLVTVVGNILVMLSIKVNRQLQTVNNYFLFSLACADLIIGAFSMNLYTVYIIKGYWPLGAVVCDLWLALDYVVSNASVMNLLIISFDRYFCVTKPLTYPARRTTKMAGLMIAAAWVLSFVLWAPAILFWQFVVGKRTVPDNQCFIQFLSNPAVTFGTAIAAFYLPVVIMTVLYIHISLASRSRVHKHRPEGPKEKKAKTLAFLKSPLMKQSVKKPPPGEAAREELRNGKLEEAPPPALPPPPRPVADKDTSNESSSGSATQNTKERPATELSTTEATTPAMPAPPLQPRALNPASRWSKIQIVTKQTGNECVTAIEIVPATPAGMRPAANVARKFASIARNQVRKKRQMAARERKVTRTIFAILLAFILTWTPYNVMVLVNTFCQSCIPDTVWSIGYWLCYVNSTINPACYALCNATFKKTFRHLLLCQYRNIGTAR
- Procedure summary: compounds altering M4/GIRK thallium flux, either direction, primary screen, M4 allosteric agonist project, cell-based, HEK293 M4/GIRK, BTC-AM (AID 625);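 further: thallium influx through GIRK channels coupled to M4 in HEK293 cells with BTC-AM dye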
- Experimental context: at 10 µM, actives lie on both sides
Answer 0 if fluorescence slope is under 0.005, and 1 if it is 0.005 or more.

| Compound | Experimental system | Class label |
| --- | --- | --- |
| O=C(Oc1cccnc1)c1ccco1 | Muscarinic acetylcholine receptor M4 (Homo sapiens) (UniProt P08173) | 0 |
| COc1ccc2c(c1OC)C(=O)N1c3ccccc3C(=O)N(c3ccccc3F)C21 (configuration not stated) | Muscarinic acetylcholine receptor M4 (Homo sapiens) (UniProt P08173) | 1 |
| CCN(CC)c1ccc(C2Nc3cccc4cccc(c34)N2)c(O)c1 | Muscarinic acetylcholine receptor M4 (Homo sapiens) (UniProt P08173) | 0 |

// switching to the query compound
Q. Is fluorescence slope at least 0.005? Consider Cc1cc(=O)oc(C)c1C(=O)NCC(C)C
A. 1

* * *

Listed below: nuclei count values for each entry.
- Procedure summary: inhibitors of mutant huntingtin aggregation, primary screen, imaging, exon1htt(103Q)mCFP cells, high-content imaging (AID 483);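 further: compound exposure lasted 3 days before fixation; percent of the per-plate median nuclei count of sample wells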
- Experimental context: exon1htt(103Q)mCFP cell line, aggregate imaging, at 2 µM; measured here: cell count, toxicity
Give the number; % is assumed, so skip it.

| Molecule | Output unit | Observed |
| --- | --- | --- |
| C=CCOC(=O)C1=C(C)OC(N)=C(C#N)C1c1ccc2c(c1)OCO2 (stereo not drawn) | % | 90.4 |
| CCCCCn1c(CN2CCN(C)CC2)nc2c1c(=O)n(C)c(=O)n2C | % | 95.8 |
| Cn1c(-c2ccc(F)cc2)cnc1SCC(=O)Nc1ccccc1N1CCOCC1 | % | 63.3 |
| O=C(CCCCCn1c(=S)[nH]c2cc3c(cc2c1=O)OCO3)N1CCN(Cc2ccccc2)CC1 | % | 100 |
| Nc1nnc(C(=O)c2ccccc2N)s1 | % | 99.9 |
| CCOC(=O)Cn1c(CN(C)Cc2ccccc2)nc2c1c(=O)n(C)c(=O)n2C | % | 92.6 |
| O=C(Nc1cccnc1)c1ccc2c(c1)OCO2 | % | 80.6 |
| CCOC(=O)c1sc(=NC(=O)c2ccc(OC)c(OC)c2)n(C)c1C | % | 93.8 |
| COc1ccc(S(=O)(=O)N2CCC(C(=O)Nc3c(F)cccc3F)CC2)cc1 | % | 108 |
| CCOC(=O)Cn1c(=O)c(-c2ccccc2N)nc2ccccc21 | % | 124 |

Q. // returns reported nuclei count for input CCOc1ccc(OCc2cccc(C(=O)N3CCOCC3)c2)cc1
A. 101

Q. And O=C(CCS(=O)(=O)c1cccc2nsnc12)NCc1ccccc1 ?
A. 93.6

Q. Now the same for CC1CCCN(S(=O)(=O)c2coc(C(N)=O)c2)C1 (stereo not drawn)
A. 111

Q. Now the molecule Cc1cccc(-n2c(O)c(C=Nc3ccccc3N)c(=O)[nH]c2=O)c1
A. 101

Q. Another: CCOc1cccc(-c2nnc3sc(COc4ccc(OC)cc4)nn23)c1
A. 95.7

Q. And the next one, CC(C)c1nnc(SCC(=O)NCc2ccco2)n1C ?
A. 77

* * *

- Procedure summary: DUSP6 inhibitors restoring Erk phosphorylation by chemical complementation, primary imaging in DUSP6-transfected HeLa (AID 609)
- Experimental context: HeLa MKP-3 transfected, phospho-Erk imaging KS statistic; measured here: nuclear c-Myc green intensity z-score; at 10 µM; cells stimulated with TPA for 15 min
# cutoff -0.2 applies to z-score; >= gives 1, < gives -1

# count of solved cases: 5
| Compound | Class label |
| --- | --- |
| O=c1cc(N2CCCCC2)nc2n1CCCS2 | -1 |
| COc1ccc(/C(O)=C2/C(=O)C(=O)N(CCCN(C)C)C2c2ccc(C)o2)cc1Cl (stereo unspecified) | -1 |
| N#Cc1cccc(-n2c(-c3ccccc3)nnc2-c2ccccc2)c1C#N | 1 |
| Cc1ccc(C2CC(c3cccs3)n3nc(N)nc3N2)cc1 (stereo unspecified) | 1 |
| CC1(C(=O)CSc2ncn[nH]2)CCC(=O)O1 (stereo unspecified) | 1 |

Q. Is the recorded value of z-score equal to or greater than -0.2 for this compound? CCOC(=O)C1=C(N)n2c(s/c(=C\c3cccnc3)c2=O)=C(C(=O)OC)C1c1cccnc1 (stereo unspecified)
A. 1

Q. Then this compound: Cn1c(=O)c2c(nc(NCc3ccco3)n2Cc2ccc(Cl)cc2Cl)n(C)c1=O
A. -1

Q. Continue with O=C(O)C1CC(=O)n2c(nc3ccccc32)S1 (stereo unspecified)
A. -1

* * *

- Procedure summary: inhibitors of mutant huntingtin aggregation, primary screen, imaging, exon1htt(103Q)mCFP cells, high-content imaging (AID 483);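 further: compound exposure lasted 3 days before fixation; percent of the per-plate median nuclei count of sample wells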
- Experimental context: exon1htt(103Q)mCFP cell line, aggregate imaging, at 2 µM; measured here: cell count, toxicity
Parameter: nuclei count (%)
The reply should contain only the number, in %.

| Molecule | nuclei count [%] |
| --- | --- |
| COc1ccc(N2C(=O)CCC(C(=O)N3CCCCC3)C2c2ccc(OC)c(OC)c2)cc1 (stereo unspecified) | 96.5 |
| O=C(CN1C(=O)CCS(=O)(=O)c2ccccc21)Nc1cccc(F)c1 | 113 |
| Cc1ccc(CSC2=NCCN2C(=O)C2CC2)cc1 | 100 |

Q. Query: nuclei count; subject: Cc1ccc(S(=O)(=O)NCC(=O)N(CC(=O)NC2CCCCC2)Cc2ccco2)cc1
A. 97.1

Q. Moving on to the next molecule: COc1cc(S(=O)(=O)N(C)C)ccc1F
A. 87.4

Q. Next molecule: O=C(NCc1ccco1)C(c1ccco1)N(C(=O)Cn1nnc2ccccc21)c1ccc2c(c1)CCC2 (stereo unspecified)
A. 103

Q. Subsequent entry: CCc1noc(C)c1C(=O)NCCc1ccc(OC)c(OC)c1
A. 121

Q. Another: CCCCN(C(=O)c1ccc(Cl)cc1)C1CC2CCC(C1)N2C (stereo unspecified)
A. 114

Q. Same question, CCCc1cc(C(=O)Nc2ccc(C(C)=O)cc2)no1 this time
A. 128

Q. Also, CC1(C)OC(=O)C(=CNC(CCC(N)=O)C(=O)O)C(=O)O1 (stereo unspecified) please.
A. 117

Q. Also check O=C(O)CCn1c(=O)c2ccccc2c2ccccc2c1=O
A. 118

* * *

- Experimental system: Voltage-gated potassium channel subunit beta-2 (Rattus norvegicus)
- Procedure summary: KvBeta enzyme negative modulators, primary screen, biochemical, NADPH fluorescence (AID 622);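 further: slope of raw intensity against log time taken from 70 to 1610 s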
- Experimental context: recombinant KvBeta, 4-cyanobenzaldehyde reduction, at 10 µM, stronger effect = higher value
Parameter: fluorescence slope
Just the number, please.

Q. # returns recorded fluorescence slope (system: Voltage-gated potassium channel subunit beta-2 (Rattus norvegicus)) for Cc1ccccc1COc1ccc(/C(O)=C2/C(=O)C(=O)N(CCCn3ccnc3)C2c2ccco2)cc1 (centres undefined)
A. -0.48

* * *

- Experimental system: Alpha-2C adrenergic receptor (Homo sapiens)
- Procedure summary: modulators of alpha2C/GIRK thallium flux, primary screen, cell-based, HEK293 alpha2C/GIRK1/2 (AID 624);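 further: slope of fluorescence ratio to pre-addition baseline per second over 15 to 24 s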
- Experimental context: thallium flux BTC fluorescence, at 10 µM, actives lie on both sides
Param threshold (0.005) applies to slope; output met when value >= threshold, not met when value < threshold.

Example results:
| Molecule | Class label |
| --- | --- |
| CCOC(=O)c1ccc(NC(=O)CSc2n[nH]c(-c3ccncc3)n2)cc1 | met |
| CN(Cc1ccccc1)c1nc2c(c(=O)[nH]c(=O)n2C)n1Cc1ccccc1Cl | not met |
| Cc1cc2n(n1)C(c1ccccc1)Nc1ccccc1-2 (configuration not stated) | not met |
| CCn1cc(C(C)NC(=O)COc2ccc(Cl)cc2C)c(C)n1 (configuration not stated) | not met |
| COCCCn1c(SCC(=O)Nc2cccc(C)n2)nnc1-c1ccco1 | not met |

Q. Please check the record Cc1cc(=O)oc2c1c(C)nn2-c1ccc(C(=O)OC(C)C)cc1 and state if its slope is at or above 0.005.
A. met

Q. Then what about the molecule CCCCSc1cc(C)nc2ncnn12 ?
A. not met

Q. Now give it for COc1ccccc1C(=O)N1CCN=C1SCc1cccnc1 too.
A. met

Q. // same read-out, input: Cc1cc(C(=O)Nc2cccnc2)no1
A. met
